Please go through the items and note down their pIC50.
testSystem: chicken gizzard smooth muscle myosin subfragment-1 chemically crosslinked to either cardiac or skeletal actin (Gallus gallus)
Scale note: pIC50 = -log10(concentration in M).

Value lookup for pIC50; key = O=C(NCc1cccnc1)c1ccc(N2CCOCC2)nc1NCCc1cccc(F)c1
5.57

Value lookup for pIC50; key = CC(C)(C)OC(=O)NCCCN1C(=O)CC[C@@H]1CNC(=O)c1cc(F)c(N2CCCC2)nc1NCCc1cccc(F)c1
5.48

Value lookup for pIC50; key = O=C(NCc1cccnc1)c1ccc(N2CC(O)CCC2=O)nc1NCCc1cccc(F)c1 (stereo not shown)
4.53

Value lookup for pIC50; key = NCc1cccc(CNC(=O)c2ccc(N3CCCCC3)nc2NCCc2cccc(F)c2)n1
6.48

* * *

Please go through the items and note down their IC50.
testSystem: chicken gizzard smooth muscle myosin subfragment-1 chemically crosslinked to either cardiac or skeletal actin (Gallus gallus)
Unit µM implied. Number only.

Value lookup for IC50; key = O=C(NCc1cccnc1)c1ccc(N2CC=CCC2)nc1NCCc1cccc(F)c1
0.687

Value lookup for IC50; key = CN[C@H]1CCN(c2ccc(C(=O)NCc3cccnc3)c(NCCc3cccc(F)c3)n2)C1
59.5

Value lookup for IC50; key = O=C(NCc1cccnc1)c1ccc(N2CCNCC2=O)nc1NCCc1cccc(F)c1
70.8

Value lookup for IC50; key = NCc1ncccc1CNC(=O)c1cc(F)c(N2CCCC2)nc1NCCc1cccc(F)c1
0.0259

Value lookup for IC50; key = NCc1ncccc1CNC(=O)c1ccc(N2CCCC2)nc1NCCc1cccc(F)c1
0.0297

Value lookup for IC50; key = O=C(NCc1cccnc1)c1ccc(C2=CCCC2)nc1NCCc1cccc(F)c1
0.637

Value lookup for IC50; key = C[C@H](CNC(=O)c1cc(F)c(N2CCCC2)nc1NCCc1cccc(F)c1)NC(=O)CNC(=O)OC(C)(C)C
15.1

Value lookup for IC50; key = CNC[C@@H]1CCN(c2ccc(C(=O)NCc3cccnc3)c(NCCc3cccc(F)c3)n2)C1
64.8

Value lookup for IC50; key = N#CN1CCN=C1c1ccc(C(=O)NCc2cccnc2)c(NCCc2cccc(F)c2)n1
0.435

Value lookup for IC50; key = CN(C)C(=O)c1ccc(N2CCCCC2=O)nc1NCCc1cccc(F)c1
53.4

Value lookup for IC50; key = NC(=O)CCNC(=O)c1ccc(N2CCCC2)nc1NCCc1cccc(F)c1
1.59

Value lookup for IC50; key = O=C(NCc1cccnc1)c1ccc(N2CCCC2=O)nc1NCCc1cccc(F)c1
4.56

Value lookup for IC50; key = CC(=O)N1CCN(c2ccc(C(=O)NCc3cccnc3)c(NCCc3cccc(F)c3)n2)CC1
8.57

Value lookup for IC50; key = O=C(NCc1cccnc1)c1ccc(N2CCCC2)nc1NCCc1cccc(F)c1
0.131

Value lookup for IC50; key = CC(C)(C)OC(=O)NCC(=O)N1CCC[C@@H]1CNC(=O)c1cc(F)c(N2CCCC2)nc1NCCc1cccc(F)c1
13.6

Value lookup for IC50; key = O=C(NCc1cccnc1)c1ccc(N2CCCC(O)C2)nc1NCCc1cccc(F)c1 (stereo in doubt)
0.515

Value lookup for IC50; key = COC(=O)N1CCN(c2ccc(C(=O)NCc3cccnc3)c(NCCc3cccc(F)c3)n2)CC1
1.53

Value lookup for IC50; key = O=C(NCc1cccnc1)c1ccc(N2CCC(CCO)CC2)nc1NCCc1cccc(F)c1
0.471

Value lookup for IC50; key = NC1CCN(c2ccc(C(=O)NCc3cccnc3)c(NCCc3cccc(F)c3)n2)C1 (stereo not drawn)
23.1

Value lookup for IC50; key = O=C1CC=C(c2ccc(C(=O)NCc3cccnc3)c(NCCc3cccc(F)c3)n2)CC1
0.671

Value lookup for IC50; key = CNC(=O)CNC(=O)c1ccc(N2CCC(F)(F)C2)nc1NCCc1cccc(F)c1
0.931

Value lookup for IC50; key = CN1CC=C(c2ccc(C(=O)NCc3cccnc3)c(NCCc3cccc(F)c3)n2)CC1
4.36

Value lookup for IC50; key = CC(C)(C)OC(=O)NCC1CCN(c2ccc(C(=O)NCc3cccnc3)c(NCCc3cccc(F)c3)n2)CC1
4.56

Value lookup for IC50; key = CC(C)(C)OC(=O)NC1CCN(c2ccc(C(=O)NCc3cccnc3)c(NCCc3cccc(F)c3)n2)C1 (stereo not drawn)
18.5

Value lookup for IC50; key = O=C(NCc1cccnc1)c1ccc(N2CC=CC2)nc1NCCc1cccc(F)c1
0.154

Value lookup for IC50; key = CCOC(=O)N1CCN(c2ccc(C(=O)NCc3cccnc3)c(NCCc3cccc(F)c3)n2)CC1
3.16

Value lookup for IC50; key = NCc1cccc(CNC(=O)c2ccc(N3CC[C@H](O)C3)nc2NCCc2cccc(F)c2)n1
3.07

Value lookup for IC50; key = CN1CCN(c2ccc(C(=O)NCc3cccnc3)c(NCCc3cccc(F)c3)n2)CC1
59.9

Value lookup for IC50; key = O=C(NCc1cccnc1)c1cc(Br)c(N2CCCC2)nc1NCCc1cccc(F)c1
0.295

Value lookup for IC50; key = CNC(=O)CNC(=O)c1ccc(N2CCC(O)CC2)nc1NCCc1cccc(F)c1
9.5

Value lookup for IC50; key = NCc1ncccc1CNC(=O)c1cc(F)c(N2CC[C@@H](F)C2)nc1NCCc1cccc(F)c1
0.023

Value lookup for IC50; key = O=C(NCc1cccnc1)c1ccc(N2CC[C@H](O)C2)nc1NCCc1cccc(F)c1
1.02

Value lookup for IC50; key = COC(=O)N1C=CC(c2ccc(C(=O)NCc3cccnc3)c(NCCc3cccc(F)c3)n2)CC1 (stereo not drawn)
5.77

* * *

testSystem: chicken gizzard smooth muscle myosin subfragment-1 chemically crosslinked to either cardiac or skeletal actin (Gallus gallus, UniProt P10587)
pIC50: −log10 of the molar value.
Rule: criterion met for pIC50 not less than 5, criterion not met for anything less.

In plain terms: is recorded pIC50 at least 5 for CC(C)(C)OC(=O)NC1CCN(c2ccc(C(=O)NCc3cccnc3)c(NCCc3cccc(F)c3)n2)CC1 ?
criterion not met

In plain terms: is recorded pIC50 at least 5 for NCc1cccc(CNC(=O)c2ccc(N3CCCC3)nc2NCCc2cccc(F)c2)n1 ?
criterion met

In plain terms: is recorded pIC50 at least 5 for O=C(NCc1cccnc1)c1ccc(N2CCCC2)nc1NCCc1ccccn1 ?
criterion not met

In plain terms: is recorded pIC50 at least 5 for Nc1ccc(CNC(=O)c2ccc(N3CCCC3)nc2NCCc2cccc(F)c2)cn1 ?
criterion met

In plain terms: is recorded pIC50 at least 5 for O=C(NCc1cccnc1)c1ccc(C2=CCCCC2)nc1NCCc1cccc(F)c1 ?
criterion met

In plain terms: is recorded pIC50 at least 5 for O=C(NCc1cccnc1)c1ccc(C2=CCC3(CC2)OCCO3)nc1NCCc1cccc(F)c1 ?
criterion met

In plain terms: is recorded pIC50 at least 5 for O=C(NCc1cccnc1)c1ccc(C2CCCCC2)nc1NCCc1cccc(F)c1 ?
criterion met

In plain terms: is recorded pIC50 at least 5 for CC(=O)NC[C@@H]1CCN(c2ccc(C(=O)NCc3cccnc3)c(NCCc3cccc(F)c3)n2)C1 ?
criterion met

In plain terms: is recorded pIC50 at least 5 for CC(C)(C)OC(=O)N1CCC[C@@H]1CNC(=O)c1cc(F)c(N2CCCC2)nc1NCCc1cccc(F)c1 ?
criterion met

In plain terms: is recorded pIC50 at least 5 for O=C(NCc1cccnc1)c1ccc(N2CCC(O)CC2)nc1NCCc1cccc(F)c1 ?
criterion met

In plain terms: is recorded pIC50 at least 5 for O=C(NCc1cccnc1)c1cc(Cl)c(N2CCCC2)nc1NCCc1cccc(F)c1 ?
criterion met

In plain terms: is recorded pIC50 at least 5 for O=C1CN(c2ccc(C(=O)NCc3cccnc3)c(NCCc3cccc(F)c3)n2)CCN1 ?
criterion met

In plain terms: is recorded pIC50 at least 5 for O=C(NCc1cccnc1)c1ccc(N2CCC(CO)CC2)nc1NCCc1cccc(F)c1 ?
criterion met

In plain terms: is recorded pIC50 at least 5 for CN(C)C(=O)c1ccc(N2CC[C@@H](O)C2)nc1NCCc1cccc(F)c1 ?
criterion not met

In plain terms: is recorded pIC50 at least 5 for O=C(NCc1cccnc1)c1ccc(N2CC[C@H](CO)C2)nc1NCCc1cccc(F)c1 ?
criterion met

* * *

testSystem: chicken gizzard smooth muscle myosin subfragment-1 chemically crosslinked to either cardiac or skeletal actin (Gallus gallus, UniProt P10587)
Please go through the items and note down their pIC50.
Scale note: pIC50 = -log10(concentration in M).

Value lookup for pIC50; key = CC(C)(C)OC(=O)N1CCN(c2ccc(C(=O)NCc3cccnc3)c(NCCc3cccc(F)c3)n2)C(=O)C1 [Compound 24]
4.22

Value lookup for pIC50; key = O=C(NCc1cccnc1)c1ccc(N2CCCCC2=O)nc1NCCc1cccc(F)c1 [Compound 10]
5.27

Value lookup for pIC50; key = O=C(NCc1cccnc1)c1ccc(N2CCC[C@@H]2CO)nc1NCCc1cccc(F)c1 [Compound 88]
4.98

Value lookup for pIC50; key = N#Cc1cc(C(=O)NCc2cccnc2)c(NCCc2cccc(F)c2)nc1N1CCCC1 [Compound 49]
6.78

Value lookup for pIC50; key = O=C(NCc1cccnc1)c1ccc(N2CCCCC2)nc1NCCc1ccccn1 [Compound 45]
4.88

Value lookup for pIC50; key = NCc1cccc(CNC(=O)c2ccc(N3CC[C@@H](O)C3)nc2NCCc2cccc(F)c2)n1 [Compound 103]
5.65

Value lookup for pIC50; key = O=C(NCc1cccnc1)c1ccc(N2CC[C@@H](CO)C2)nc1NCCc1cccc(F)c1 [Compound 6]
6.51

Value lookup for pIC50; key = CN(C)C(=O)N1CCN(c2ccc(C(=O)NCc3cccnc3)c(NCCc3cccc(F)c3)n2)CC1 [Compound 84]
4.31

Value lookup for pIC50; key = O=C(NCc1cccnc1)c1ccc(N2CCS(=O)(=O)CC2)nc1NCCc1cccc(F)c1 [Compound 122]
4.52

Value lookup for pIC50; key = CN(C)C(=O)N[C@@H]1CCN(c2ccc(C(=O)NCc3cccnc3)c(NCCc3cccc(F)c3)n2)C1 [Compound 31]
4.17

Value lookup for pIC50; key = O=C(NC[C@H]1CCCN1)c1cc(F)c(N2CCCC2)nc1NCCc1cccc(F)c1 [Compound 79]
5.74

Value lookup for pIC50; key = O=C(NCc1cccnc1)c1ccc(N2CCSCC2)nc1NCCc1cccc(F)c1 [Compound 121]
5.80

Value lookup for pIC50; key = CN(C)C[C@@H]1CCN(c2ccc(C(=O)NCc3cccnc3)c(NCCc3cccc(F)c3)n2)C1 [Compound 9]
4.12

Value lookup for pIC50; key = O=C(NCc1cccnc1)c1ccc(C2CCCC2)nc1NCCc1cccc(F)c1 [Compound 59]
5.36

Value lookup for pIC50; key = O=C(NCc1cccnc1)c1ccc(N2CCC(c3ccncc3)C2)nc1NCCc1cccc(F)c1 (stereo not shown) [Compound 96]
5.53

Value lookup for pIC50; key = CC(C)(C)OC(=O)N1CC=C(c2ccc(C(=O)NCc3cccnc3)c(NCCc3cccc(F)c3)n2)CC1 [Compound 58]
5.67
